Data credit: paper PMC6155162

# System: SKM9-2
# Assay Summary: SPR analysis of binding between SKM9-2 and soluble His-tagged minimum epitope peptides (SKMepmin)
# Assay Setup: analyte 5 µg/mL SKM9-2, change caused by the substitution
Measure: dissociation rate between SKM9-2 and epitope peptide (in words)

{"Chain": "MAPLLLLLLPLLLLPPAAPGGSKAPSLVALPAGGDYKDDDDKHHHHHHHH [SKMepmin8]", "Reported Measurement": "increased"}
{"Chain": "MAPLLLLLLPLLLLPPAAPGGSKAPSLVTLPAGGDYKDDDDKHHHHHHHH [SKMepmin9]", "Reported Measurement": "increased"}
{"Chain": "MAPLLLLLLPLLLLPPAAPGGSKAPALVSLPAGGDYKDDDDKHHHHHHHH [SKMepmin6]", "Reported Measurement": "increased"}

---

# Test system: SKM9-2
# Assay Summary: SPR analysis of binding between SKM9-2 and soluble His-tagged minimum epitope peptides (SKMepmin)
# Assay Setup: analyte 5 µg/mL SKM9-2, change caused by the substitution
# Protocol: Figure 5 SPR analysis of the binding kinetics between SKM9-2 and mutants of minimum epitope. […] The dissociation constant in the lower bar graph was calculated using the manufacturer’s instructions. […] The binding of SKM9-2 or lectin to SKMepmin was measured by SPR analysis. […] The dissociation constant was calculated using the manufacturer’s instructions.
Measure: association rate between SKM9-2 and epitope peptide (in words)

{"Chain": "MAPLLLLLLPLLLLPPAAPGGSKAPSLVSLPAGGDYKDDDDKHHHHHHHH [SKMepmin3, minimum glycosylation peptide 893-…-903 -FLAG-Hisx8 with two disialyl T at Ser893 and Ser900]", "Assayed Target": "SKM9-2", "Reported Measurement": "increased"}
{"Chain": "MAPLLLLLLPLLLLPPAAPGGSKAPSLVSLPTGGDYKDDDDKHHHHHHHH [SKMepmin2]", "Assayed Target": "SKM9-2", "Reported Measurement": "increased"}

---

# System: SKM9-2
# Assay Summary: SPR analysis of binding between SKM9-2 and soluble His-tagged minimum epitope peptides (SKMepmin)
# Assay Setup: analyte 5 µg/mL SKM9-2, ligand on sensor chip NTA
Measure: affinity of SKM9-2 in contrast to SKMepmin3 (in words)

{"Chain": "MAPLLLLLLPLLLLPPAAPGGSKAPSLVALPAGGDYKDDDDKHHHHHHHH [SKMepmin8]", "Reported Measurement": "decreased"}
{"Chain": "MAPLLLLLLPLLLLPPAAPGGSKAPALVSLPAGGDYKDDDDKHHHHHHHH [SKMepmin6]", "Reported Measurement": "decreased"}
{"Chain": "MAPLLLLLLPLLLLPPAAPGGTKAPSLVSLPAGGDYKDDDDKHHHHHHHH [SKMepmin5]", "Reported Measurement": "restored"}
{"Chain": "MAPLLLLLLPLLLLPPAAPGGAKAPSLVSLPAGGDYKDDDDKHHHHHHHH [SKMepmin4]", "Reported Measurement": "decreased"}

Requested read-out: affinity of SKM9-2 in contrast to SKMepmin3 (in words). Entry: MAPLLLLLLPLLLLPPAAPGGSKAPSLVTLPAGGDYKDDDDKHHHHHHHH [SKMepmin9]
restored
